Below, each of the compounds is paired with its reported activation value.
- target.or.system: cAMP-dependent protein kinase type I-alpha regulatory subunit (Bos taurus) + cAMP-dependent protein kinase catalytic subunit beta (Mus musculus) (UniProt P00514+P68181)
- assay.name: compounds dissociating PKAc from R1A subunit – biochemical, fluorescence polarization, Cy5-IP20, bovine R1A, mouse PKAc, primary screen (AID 504707);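 also: higher means more PKAc released from R1A so a rise in polarization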
- recorded.conditions: PKA-R1A dissociation, at 11.4 µM, active compounds read high, scaled: DMSO 0%, 113 µM cGMP 100%
Out of some 340,000 compounds screened, about 280 (0.082%) were called active. The entries come from a sample that favours actives as a whole.
parameter.measured: activation (%)

- CNC(=O)C[C@H]1C(=O)N(c2ccc(OC)cc2)C[C@@H]1Cc1ccccc1: -2.17
- CC1=C(C(=O)N2CCOCC2)CC(CC(=O)NCCN2CCOCC2)C(=O)N1CCC1=CCCCC1 (stereo unspecified): -5.53
- COc1ccc(CN2C(=O)C(CC(=O)NC3CCCCC3)CC(C(=O)N3CCOCC3)=C2C)cc1 (stereo unspecified): 1.08
- CCCn1c(N)c(C(=O)CSc2nnc(Cc3cccs3)n2C2CC2)c(=O)[nH]c1=O: 9.54
- COc1ccc(C(=O)Nc2ccc(-n3nncc3C(C)(C)C)cc2)cc1: -6.01
- c1ccc2c(c1)nnn2-c1ccncc1: -12.8
- O[C@H]1CN(Cc2cccs2)[C@@H](c2ccc(Cl)cc2)C[C@@H]1n1cc(C2CC2)nn1: -6.87
- NC(CSC(c1ccccc1)(c1ccccc1)c1ccc(-c2ccccc2)cc1)C(=O)O (stereo unspecified): -6.56
- Cc1cccc(C(=O)C(O)(c2ccccc2)C2CCCCC2=O)c1 (stereo unspecified): -0.27
- CSc1ncnc2c1ncn2CCCNCc1ccco1: -1.79
- Cc1ccc(S(=O)(=O)NN=C2CC(C)(C)CC(=O)C2(C)C)cc1: -0.8
- COc1ccc(NS(=O)(=O)c2ccc(NC(=O)c3ccc(N(C)S(C)(=O)=O)cc3)cc2)cc1: 9.45
- CCN(C(=O)C1CCCN(c2nc(-c3ccc(OC)cc3)no2)C1)c1ccc(OC)cc1 (stereo unspecified): -6.29
- COc1ccc(S(=O)(=O)N(C)C)cc1NC(=O)COC(=O)c1n[nH]c2ccccc12: 0.55
- COC(=O)[C@H]1Cc2cnoc2C[C@]1(C)C(=O)O: 4.79
- Cc1ccccc1N1CC(C(=O)Nc2nnc(SCCC3OCCO3)s2)CC1=O (stereo unspecified): -0.56
- Cc1ccc(S(=O)(=O)N2CCOCC2)cc1NC(=O)c1ccncc1: -4.48
- CN1CCN(S(=O)(=O)c2cccc(C(=O)Nc3sccc3C#N)c2)CC1: -12.1
- C[C@H]1CN([C@@H](C)CO)C(=O)c2cc(-c3ccccc3F)cnc2O[C@H]1CN(C)C(=O)C1CCOCC1: -7.74
- COc1ccc(Cl)cc1NC(=O)CN(C)C(=O)c1cn(-c2ccccc2)nc1-c1cccs1: -7.71
- COc1ccc(NC(=O)COC(=O)C2COc3ccccc3O2)cc1 (stereo unspecified): 11.1
- CC1CCCC(NC(=O)COC(=O)c2ccccc2C(=O)N(C)C2CCCCC2)C1C (stereo unspecified): 4.19
- Cc1ccccc1NC(=O)Cc1nc(COC(=O)CNC(=O)c2ccc(Cl)cc2Cl)cs1: 4.88
- COc1ccc(NC(=O)c2cc(=O)[nH]c3ccccc23)cc1S(=O)(=O)N1CCOCC1: 3.45
- COc1cc(Br)c(-c2sc(Nc3ccccc3)n[n+]2-c2ccccc2)cc1OC: -4.44
- CCc1ccccc1OCC(=O)Nc1nnc(C2CC2)s1: 8.59
- CC(=O)Nc1ccc(C=CC(=O)c2ccc([N+](=O)[O-])cc2)cc1: 4.15
- COc1cc2ccc(C(C)=O)c(O)c2cc1OC: 4.58
- COc1cccc(NC(=O)CN(C)C(=O)c2cc(Cl)nc3ccccc23)c1: 9.02
- O=C(CN1CCN(S(=O)(=O)c2ccc(Cl)s2)CC1)NCc1ccc(Cl)cc1: 6.31
- CCOC(=O)C=Cc1ccc(C(=O)OCC)[nH]1: 1.4
- CC(C)NC(=O)Nc1ccc2c(c1)C(=O)N([C@H](C)CO)C[C@H](C)[C@@H](CN(C)Cc1ccc(C(F)(F)F)cc1)OCCCC[C@@H](C)O2: 3.01
- Cc1ccc(CCNC(=O)CN2C(=O)CSc3ccc(S(=O)(=O)N4CCOCC4)cc32)cc1: -7.23
- COCCNC(=O)CSc1nc(N)c(NC(=O)c2ccco2)c(=O)[nH]1: 5.93
- COc1ccccc1N1CC(C(=O)Nc2nnc(SCC(=O)NCC3CCCO3)s2)CC1=O (stereo unspecified): 0.23
- CCOC(=O)c1cnc(SC)nc1Sc1ccc(Cl)cc1Cl: -0.11
- CCOC(=O)c1cnn2c(SC)ncnc12: 1.57
- Cc1ccc([C@H]2N[C@]3(CCCN(Cc4ccccc4)C3=O)[C@H]3C(=O)N(Cc4ccccc4)C(=O)[C@@H]23)cc1: 3.96
- CCCCCC(=O)N1C[C@H](O)[C@@H](n2cc(COC(=O)c3ccccc3)nn2)C[C@@H]1c1ccc(C)cc1: 1.28
- C[C@H]1CN([C@@H](C)CO)C(=O)CCCn2cc(nn2)CO[C@@H]1CN(C)S(=O)(=O)c1ccccc1C#N: -3.32
- CCCNC(=O)C1CC(=O)N(c2ccc(OCc3ccccc3)cc2)C1 (stereo unspecified): 3.3

====

- target.or.system: cAMP-dependent protein kinase type I-alpha regulatory subunit (Bos taurus) + cAMP-dependent protein kinase catalytic subunit beta (Mus musculus) (UniProt P00514+P68181)
- assay.name: compounds dissociating PKAc from R1A subunit – biochemical, fluorescence polarization, Cy5-IP20, bovine R1A, mouse PKAc, primary screen (AID 504707);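 also: higher means more PKAc released from R1A so a rise in polarization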
- recorded.conditions: PKA-R1A dissociation, at 11.4 µM, active compounds read high, scaled: DMSO 0%, 113 µM cGMP 100%
In all, about 340,000 compounds went through this assay and about 280 (0.082%) were called active. The sample as a whole holds a higher share of actives than the screen did.
Below, each of the molecules is paired with its reported activation value.
parameter.measured: activation (%)

* CC(C)CCC(=O)Nc1cc(S(=O)(=O)N2CCOCC2)ccc1N1CCCC1 | -1.93
* CC(C)n1ncc2c(C(=O)N3CCN(Cc4cccs4)CC3)cc(C3CC3)nc21 | 1.11
* Cc1ccc(-c2ccc(CN3C(C(C)C)C(=O)N(Cc4cn(CCC5OCCO5)nn4)CCS3(=O)=O)cc2)cc1 (configuration not stated) | -8.79
* Cc1ccc([C@H]2C[C@H](O)[C@@H](n3cc(COC(=O)c4ccccc4)nn3)CN2CC2CCCCC2)cc1 | -14.8
* Cc1csc(SCC(=O)Nc2ccc(C)c(S(=O)(=O)N(C)C)c2)n1 | -1.19
* O=C(NN=Cc1ccc2c(c1)CCC2)c1ccccc1O | 10.6
* C#CCN(C[C@@H]1[C@@H](OC(=O)NC2CC2)[C@@H](OC(=O)NC2CC2)Cn2c(=O)ccc(=O)n21)S(=O)(=O)c1ccc(C)cc1 | -6.57

====

Below, each of the molecules is paired with its reported activation value.
- target.or.system: cAMP-dependent protein kinase type I-alpha regulatory subunit (Bos taurus) + cAMP-dependent protein kinase catalytic subunit beta (Mus musculus) (UniProt P00514+P68181)
- assay.name: compounds dissociating PKAc from R1A subunit – biochemical, fluorescence polarization, Cy5-IP20, bovine R1A, mouse PKAc, primary screen (AID 504707);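 also: higher means more PKAc released from R1A so a rise in polarization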
- recorded.conditions: PKA-R1A dissociation, at 11.4 µM, active compounds read high, scaled: DMSO 0%, 113 µM cGMP 100%
Among all 340,000 compounds or so, about 280 (0.082%) were called active. The entries come from a sample that favours actives as a whole.
parameter.measured: activation (%)

* COCOCCn1cc(CN2CCS(=O)(=O)N(Cc3ccc(-c4ccccc4)cc3)C(CC(C)C)C2=O)nn1 (stereo not given) | -7.1
* Cc1cc(C)c2c(=O)n3c(nc2c1)C(CC(C)C)NC(=O)c1cc2ccccc2cc1-3 (stereo not given) | -8.23
* CCc1ccc(OC(C)C(=O)Nc2ccc(S(=O)(=O)Nc3cc(C)on3)cc2)cc1 (stereo not given) | -6.6
* Cc1ccc(NC(=O)COC(=O)CN2CCSC2=O)cc1F | -5.13
* COc1cccc(NC(=O)N(C)C[C@@H]2Oc3ncc(Br)cc3C(=O)N([C@@H](C)CO)C[C@H]2C)c1 | -5.28
* COc1ccc([C@H]2C[C@@H](n3cc(COC(=O)c4ccccc4)nn3)[C@H](O)CN2C(=O)c2cccs2)cc1 | -9.97
* CC1C(=O)N(Cc2cn(CC3CCCCC3)nn2)CCS(=O)(=O)N1Cc1ccc(-c2cccc(N(C)C)c2)cc1 (stereo not given) | -4.48
* COc1ccc2c(c1)CCCO[C@]21O[C@H](CCO)C[C@H](O)[C@H]1O | -17.7
* NC1=CC(=O)C(=O)c2cccnc21 | 0.52
* CCOc1ccc(C2NC(=S)NC3=C2CCc2ccccc23)cc1 (stereo not given) | -2.38
* CC1=C(C(=O)N2CCOCC2)CC(CC(=O)NCc2cccc3ccccc23)C(=O)N1CCC1=CCCCC1 (stereo not given) | -16.2
* CC(OC(=O)c1cccnc1Cl)C(=O)NC1CCCCC1 (stereo not given) | 0.33
* CCN1CCN(CCNC(=O)c2ccc3c(c2)NC(=O)/C(=C\c2cccc(Cl)c2)S3)CC1 | -8.75
* Cc1cc(C)c(C#N)c(SCC(=O)NN2CC(=O)N(c3ccccc3F)CC2=O)n1 | -8.96
* Cc1cccc(C(=O)OCC(=O)Nc2sccc2C(N)=O)c1C | 3.56
* C[C@@H]1CN([C@H](C)CO)S(=O)(=O)c2ccc(C#CC3CCCCC3)cc2O[C@H]1CN(C)C(=O)Cc1ccncc1 | -5.17
* CCN(CC)C(=O)C1=C(C)N(Cc2ccccc2)C(=O)C(CC(=O)NC(c2ccccc2)c2ccccc2)C1 (stereo not given) | -7.55
* CCc1nc2c(=O)[nH]cnc2o1 | 12.2
* Cc1ccc(NC(=O)Cn2sc3ccccc3c2=O)cc1 | 8.53
* CC(=O)N1CCc2cc(S(=O)(=O)NC3CCCCC3)ccc21 | 5.76
